assay: Inhibition of phosphotidylserine liposome-stimulated sheep brain Dynamin 1 GTPase activity using GTP as substrate by malachite green assay; type: tissue-based, Ovis aries

| smi | boundSign | IC50, µM |
| --- | --- | --- |
| CN(C)c1cccc2c(S(=O)(=O)NCCCCCN)cccc12 | = | 45.1 |
| O=S(=O)(NCCCCNC/C=C/c1ccc(Br)cc1)c1cccc2ccccc12 | = | 3 |
| O=S(=O)(NCCCCCCNC/C=C/c1ccc(Br)cc1)c1cccc2cnccc12 | = | 3.7 |
| O=S(=O)(NCCCNC/C=C/c1ccc(Br)cc1)c1cccc2cnccc12 | = | 7.1 |
| O=S(=O)(NCCCCNC/C=C/c1ccc(Br)cc1)c1cccc2cnccc12 | = | 8.1 |
| O=S(=O)(NCCNC/C=C/c1ccc(Br)cc1)c1cccc2ccccc12 | = | 4.4 |
| Cc1ccc(/C=C/CNCCNS(=O)(=O)c2cccc3cnccc23)cc1 | = | 22.4 |
| CC(C)(C)c1ccc(/C=C/CNCCNS(=O)(=O)c2cccc3cnccc23)cc1 | = | 6.6 |
| O=S(=O)(NCCCCCCNC/C=C/c1ccc(Br)cc1)c1cccc2ccccc12 | = | 5.2 |
| O=S(=O)(NCCNC/C=C/c1ccc(Br)cc1)c1cccc2cnccc12 | = | 7 |
| O=S(=O)(NCCNC/C=C/c1ccc(Cl)cc1)c1cccc2cnccc12 | = | 9.2 |
| O=S(=O)(NCCNC/C=C/c1ccc(Br)cc1)c1ccc2ccccc2c1 | = | 3.6 |
| O=S(=O)(NCCNCCCc1ccccc1)c1cccc2cnccc12 | = | 30.1 |
| O=S(=O)(NCCNC/C=C/c1ccc(Br)cc1)c1cccc2cccnc12 | = | 9.5 |
| O=S(=O)(c1cccc2cnccc12)N1CCN(C/C=C/c2ccc(Br)cc2)CC1 | = | 58.2 |
| O=C(/C=C/c1ccc(Br)cc1)NCCNS(=O)(=O)c1cccc2cnccc12 | > | 300 |
| O=S(=O)(NCCNC/C=C/c1ccccc1)c1cccc2cnccc12 | = | 38.2 |
| O=S(=O)(NCCNC/C=C/c1ccc(C(F)(F)F)cc1)c1cccc2cnccc12 | = | 12.4 |
| CN(C)c1ccc(/C=C/CNCCNS(=O)(=O)c2cccc3cnccc23)cc1 | = | 19.9 |
| CN(C/C=C/c1ccc(Br)cc1)CCNS(=O)(=O)c1cccc2ccccc12 | = | 10.5 |
| O=S(=O)(NCCNC/C=C/c1ccc(F)cc1)c1cccc2cnccc12 | = | 20.3 |
| CN(C)c1cccc2c(S(=O)(=O)NCCNC/C=C/c3ccc(Br)cc3)cccc12 | = | 3.9 |
| O=S(=O)(NCCCNC/C=C/c1ccc(Br)cc1)c1cccc2ccccc12 | = | 3.5 |
| CN(C/C=C/c1ccc(Br)cc1)CCN(C)S(=O)(=O)c1cccc2ccccc12 | = | 8.7 |
| O=S(=O)(NCCNCCc1ccccc1)c1cccc2cnccc12 | = | 96.8 |

Values from ChEMBL document CHEMBL5329162
